These entries and their values trace back to patent US11498896B2.

- system_name: human D2R/β-arrestin (Homo sapiens (Human), UniProt P14416)
- Sequence (P14416 whole entry): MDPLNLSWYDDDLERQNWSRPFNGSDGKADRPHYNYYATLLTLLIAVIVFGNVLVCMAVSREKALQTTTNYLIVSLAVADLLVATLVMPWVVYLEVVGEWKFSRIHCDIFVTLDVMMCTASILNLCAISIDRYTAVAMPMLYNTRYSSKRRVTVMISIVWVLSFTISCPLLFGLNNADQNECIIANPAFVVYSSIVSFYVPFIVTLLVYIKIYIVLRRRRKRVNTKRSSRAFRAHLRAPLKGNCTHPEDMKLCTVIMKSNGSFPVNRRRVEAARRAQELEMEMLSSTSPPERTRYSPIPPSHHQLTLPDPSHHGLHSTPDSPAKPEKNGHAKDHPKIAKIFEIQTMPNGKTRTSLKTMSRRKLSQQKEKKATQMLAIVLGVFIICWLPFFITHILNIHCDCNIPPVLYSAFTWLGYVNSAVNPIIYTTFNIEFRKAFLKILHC
- experiment_notes: cell-based
- settings: β-arrestin Antagonist, CHO-K1 cells expressing human D2R/β-arrestin; antagonist mode, quinpirole 130 nM
value_kind: IC50

CC(=O)c1cc(F)ccc1OCCN1CCC(C)(Oc2ccc(Cl)cc2)CC1 : 1000 to 10000 nM
CC1(Oc2ccccc2)CCN(CCOc2ccc(F)cc2C(F)(F)F)CC1 : 100 to 1000 nM

The following compounds each have a reported value; give each one's IC50.
1. CC1(Oc2ccc(Cl)cc2)CCN(CCCc2ccccc2)C1 (stereo not drawn)
2. CC(=O)c1ccc(OCCN2CCC(C)(Oc3ccc(Cl)cc3)CC2)cc1
3. CC(C)Oc1cc(F)ccc1OCCN1CCC(C)(Oc2ccc(Cl)cc2)CC1
4. Cc1ccc(OCCN2CCC(C)(Oc3ccc(Cl)cc3)C2)cc1 (stereo not drawn)
5. OC(c1ccccc1)C1(O)CCN(CCOc2ccccc2C(F)(F)F)CC1 (stereo not drawn)
6. CC1(Oc2ccc(Cl)cc2)CCN(CCOc2ccc(F)cc2F)C1 (stereo not drawn)
7. CC(C)C1(O)CCN(CCOc2ccccc2C(F)(F)F)CC1
8. CC1(N)CCN(C[C@H]2COc3ccccc3O2)CC1 [Compound 303, reference compound]

Key:
["1000 to 10000 nM", "1000 to 10000 nM", "1000 to 10000 nM", "1000 to 10000 nM", "100 to 1000 nM", "1000 to 10000 nM", "100 to 1000 nM", "10000 to 30000 nM"]

The following compounds each have a reported value; give each one's IC50.
1. CC1(Oc2ccccn2)CCN(CCOc2ccc(C(F)(F)F)cc2)CC1
2. CC1(Oc2ccc(Cl)cc2)CCN(CCOc2ccc(Cl)cc2)C1 (stereo not drawn)

Key:
1. 10000 to 30000 nM
2. 1000 to 10000 nM
